meta.source: PubChem BioAssay (NCATS)

test system: HEK293; assay: Cytotoxic Profiling of Annotated Libraries Using Quantitative High-Throughput Screening (AID 1296008); conditions: Five cell lines viability, CellTiter-Glo ATP luminescence, 48-72 h; further: nearly all actives have a fitted effect of over 60% in size
Records with an inconclusive call do not appear. Active and inactive are the calls of the source. The call rests on the fitted dose curve; in most records, active means well fitted inhibition curve with a large enough effect; inconclusive means small, poorly fitted or top-dose-only effect; inactive means flat fitted curve, though single readings scatter.
Outcomes: yes for active, no for inactive

substanceSmiles | labelValue
COc1cc2occc2c(O[C@@H]2O[C@H](CO)[C@@H](O)[C@H](O)[C@H]2O)c1CCC(=O)O | no
CN(C)C/C=C/C(=O)Nc1cccc(C(=O)Nc2cccc(Nc3ncc(Cl)c(-c4c[nH]c5ccccc45)n3)c2)c1 | yes
Cc1cc(Nc2ncc3cc(-c4c(Cl)cccc4Cl)c(=O)n(C)c3n2)ccc1F | yes
CCOc1cc2ncc(C#N)c(Nc3ccc(F)c(Cl)c3)c2cc1NC(=O)/C=C/CN(C)C | yes
O=C(c1ccccc1)c1ccc2nc(NC(=O)c3csc(C4CCN(c5ncnc6ccsc56)CC4)n3)[nH]c2c1 | yes
c1cc(Nc2cc(C3CC3)[nH]n2)nc(Nc2ccc3nc[nH]c3c2)n1 | yes
C#CC[C@H](c1nc2cc(Cl)ccc2c(=O)n1Nc1ccccc1)N(CCCN)C(=O)c1cccc(Cl)c1F | yes
COc1cc(O)c2c(c1)C1=C[C@H](O)[C@@H](O)C[C@]1(C)OC2=O | no
COc1cc(N2CCC(N3CCN(C)CC3)CC2)ccc1Nc1ncc(Cl)c(-c2c[nH]c3ccccc23)n1 | yes

----------
system: CRL-7250; experiment: Cytotoxic Profiling of Annotated Libraries Using Quantitative High-Throughput Screening (AID 1296008); details: Five cell lines viability, CellTiter-Glo ATP luminescence, 48-72 h; hits give low values; further: nearly all actives have a fitted effect of over 60% in size; on max response: on the % scale 0 is the no-effect control and ±100 the full control effect
Results filed as inconclusive are left out.
Measured max response values are reported for all entries that follow.

compound | max response [%]
CC1=C(C(=O)OCc2ccccc2)C(c2ccc(-c3ccccc3)cc2)NC(=O)N1CCCCCC(=O)O (stereo not given) | -0.424
CCc1cc(CN2CC(C(=O)O)C2)sc1-c1noc(-c2ccc(Oc3ccccc3)cc2)n1 | -28.8
Cc1cc(OCc2nc(-c3ccccc3Cl)cs2)ccc1OCC(=O)O | -3.46
C[C@@H]1C(=O)O[C@H]2[C@H](O)C34[C@H]5C[C@@H](C(C)(C)C)C36[C@@H](OC(=O)[C@@H]6O)O[C@@]4(C(=O)O5)[C@@]12O (stereo not given in full) | 3.72
CN1CCc2nc(C(=O)N[C@@H]3C[C@@H](C(=O)N(C)C)CC[C@@H]3NC(=O)C(=O)Nc3ccc(Cl)cn3)sc2C1 | 3.08
O=C(OC[C@H]1O[C@H](O[C@]2(CO)O[C@H](CO)[C@@H](O)[C@@H]2O)[C@H](O)[C@@H](O)[C@@H]1O)c1ccccc1 | -1.41
O=C(CC(c1ccccc1)c1ccccc1)N1CCN(C(c2ccccc2)c2ccccc2)CC1 | -24.4
CC1OC(OC2C(CO)OC(OCC3OC(OC(=O)C45CCC(C)(C)CC4C4=CCC6C7(C)CCC(OC8OC(CO)C(O)C(OC9OC(CO)C(O)C(O)C9O)C8O)C(C)(C)C7CCC6(C)C4(C)CC5)C(O)C(O)C3O)C(O)C2O)C(O)C(O)C1OC1OC(CO)C(O)C(O)C1O (stereo not given) | -0.747
CC1CCC2C(C(=O)O)=COC(O[C@@H]3O[C@H](CO)[C@@H](O)[C@H](O)[C@H]3O)C12 (stereo not given in full) | -11.5
COc1ccc(C2(O)c3ccccc3NC(=O)C2O)cc1 (stereo not given) | 0.154
COC(=O)N[C@H](C(=O)N1[C@@H]2CC[C@@H](C2)[C@H]1c1nc2ccc(-c3ccc4c(c3)C(F)(F)c3cc(-c5cnc([C@@H]6CCC7(CC7)N6C(=O)[C@@H](NC(=O)OC)C(C)C)[nH]5)ccc3-4)cc2[nH]1)C(C)C | -2.17
CC1(C)C[C@H](O)C[C@@]2(C)OC(=O)C=C12 | 1.12
CC(C)=CCCC1(C)C=Cc2c(c(C)cc3c2[nH]c2ccccc23)O1 (stereo not given) | -19.1
CC(C)=CCC/C(C)=C/CO[C@@H]1O[C@H](CO)[C@@H](O)[C@H](O)[C@H]1O | -5.48
C[C@]12C[C@@H](O)[C@@H]3C[C@@]1(O[C@@H]1O[C@H](CO)[C@@H](O)[C@H](O)[C@H]1O)[C@]3(COC(=O)c1ccccc1)C(=O)O2 | -9.75

----------
Measured max response values are reported for all entries that follow.
tested on: HaCat; experiment: Cytotoxic Profiling of Annotated Libraries Using Quantitative High-Throughput Screening (AID 1296008); details: Five cell lines viability, CellTiter-Glo ATP luminescence, 48-72 h; hits give low values; further: nearly all actives have a fitted effect of over 60% in size; on max response: on the % scale 0 is the no-effect control and ±100 the full control effect
Results filed as inconclusive are left out.

compound | max response [%]
COc1cccc(C(=O)N2CCN(C(=O)COc3cccc(C)c3)CC2)c1OC | -1.12
COc1cccc(-c2cc(NCc3ccc4c(c3)OCO4)nc(N)n2)c1 | -46.3
CC1CCC2(C(=O)O)CCC3(C)C(=CCC4C5(C)CCC(O)C(C)(CO)C5CCC43C)C2C1(C)O (stereo not given) | 1.16
CC(C(O)/C=C/C(C)(C)O)C1CCC2(C)C3C(=O)C=C4C(CCC(O)C4(C)C)C3(C)CCC12C (stereo not given) | -4.33
[N-]=[N+]=N[C@]1(CO)O[C@@H](n2ccc(=O)[nH]c2=O)[C@@H](O)[C@@H]1O | 4.64
CC1CCC23COC(=O)C2=CC(O)CC3C1(C)CCC1=CC(O)OC1=O (stereo not given) | -7.3
COc1cc(/C=C/C(=O)OC[C@H]2O[C@@](CO)(O[C@H]3O[C@H](CO)[C@@H](O)[C@H](O)[C@H]3O)[C@@H](OC(=O)/C=C/c3ccc(O)c(OC)c3)[C@@H]2O)ccc1O | -7.21
COc1c2c(c(C)c3c1C(=O)OC3)OC1(C)CC(O)C34OC(OC)(OC3(C)C)C(O)CC4(C)C1C2 (stereo not given) | -21.2
C=C1C(OC(=O)/C(C)=C\C)[C@@]23CCC4[C@@](C)(CCC[C@@]4(C)C(=O)O)C2CC[C@H]1C3OC(C)=O (stereo not given in full) | 4.6
CC1(CCOC2OC(CO)C(O)C(O)C2O)CCC23OC2(C1)C(O)CC1C(C)(C(=O)O)CCCC13C (stereo not given) | 3.2
CC(C)CNCc1ccc(-c2ccccc2S(=O)(=O)N2CCCC2)cc1 | -12.3
C[C@@H]1O[C@@H](O[C@H]2[C@H](OC(=O)[C@]34CCC(C)(C)C[C@H]3C3=CCC5[C@@]6(C)C[C@H](O)[C@H](O[C@@H]7O[C@H](CO)[C@@H](O)[C@H](O)[C@H]7O)[C@@](C)(CO)C6[C@H](O)C[C@@]5(C)[C@]3(C)CC4)OC[C@H](O)[C@@H]2O)[C@H](O)[C@H](O)[C@H]1O[C@@H]1OC[C@@H](O)[C@H](O[C@@H]2OC[C@](O)(CO)[C@H]2O)[C@H]1O (stereo not given in full) | -1.17
CC(C)[N+]1(C)C2CCC1CC(OC(=O)C(CO)c1ccccc1)C2 (stereo not given) | -18.4
CCC1C(=O)OC23C=C[C@@H]4C(C(=O)O)=CO[C@H](O[C@@H]12)[C@@H]43 (stereo not given in full) | 2.84
C=C1C(=O)OC2C1C(O)CC1(C)C(O)CCC(C=O)C21 (stereo not given) | -11.8

----------
tested on: NIH3T3; test: Cytotoxic Profiling of Annotated Libraries Using Quantitative High-Throughput Screening (AID 1296008); conditions: Five cell lines viability, CellTiter-Glo ATP luminescence, 48-72 h; further: nearly all actives have a fitted effect of over 60% in size
Inconclusive results are not listed. The source made the active and inactive calls. The call rests on the fitted dose curve; in most records, active means well fitted inhibition curve with a large enough effect; inconclusive means small, poorly fitted or top-dose-only effect; inactive means flat fitted curve, though single readings scatter.
Outcomes: active, inactive

molecule | targetDesc | labelValue
CCN(CC)CCN(Cc1ccc(-c2ccc(C(F)(F)F)cc2)cc1)C(=O)Cn1c(SCc2ccc(F)cc2)nc(=O)c2c1CCC2 | NIH3T3 | active
COC(=O)C12CCC(C)C(C)C1C1=CCC3C4(C)CCC(OC(C)=O)C(C)(C)C4CCC3(C)C1(C)CC2 (stereo not drawn) | NIH3T3 | inactive
C[C@]12C[C@@H](O)[C@@H]3C[C@@]1(O[C@@H]1O[C@H](CO)[C@@H](O)[C@H](O)[C@H]1O)[C@]3(COC(=O)c1ccccc1)C(=O)O2 | NIH3T3 | inactive
C(#Cc1nc2ncccc2nc1OCCN1CCCC1)c1ccccc1 | NIH3T3 | active
COc1cc(N2CCOCC2)ccc1Nc1ncc(Cl)c(Nc2ccccc2NS(C)(=O)=O)n1 | NIH3T3 | active
Cc1nc(Nc2n[nH]c3c2CN(C(=O)NC(CN(C)C)c2ccccc2)C3(C)C)c2sccc2n1 (stereo not drawn) | NIH3T3 | active
Nc1nccn2c(C3CCC(C(=O)O)CC3)nc(-c3cc4cccc(Cl)c4[nH]3)c12 (stereo not drawn) | NIH3T3 | active
C=CC(=O)Nc1cc(Nc2ncc(Cl)c(-c3c[nH]c4ccccc34)n2)c(OC)cc1N(C)CCN(C)C | NIH3T3 | active
